// data source = the nanobody polyreactivity screen of Harvey et al. (2022)

- test-description: yeast display, Sf9 membrane polyspecificity reagent, FACS + sequencing; frameworks hold sequencing errors
measured-parameter: polyreactivity (PSR sort gate)

Examples with their reported polyreactivity (PSR sort gate) follow.
Looking up `QVQLVESGGGLVQAGGSLRLSCAASGSTFGYYAMGWSRQAPGKERELVAAITGSGGSTYYADSVKGRFTISRDNAKNTVYLQMNSLKPEDTAVYYCATSYLLGRYYEYYYWGQGTQVTVSS` , I found its polyreactivity (PSR sort gate) recorded as high polyreactivity

Looking up `QVQLVESGGGLVQAGGSLRLSCAASGFTFYPYAMGWYRQAPGKERELVAIRSDGSTYYADSVKGRFTISRDNAKNTVYLQMNCLKPEDTAVYYCNTEPSRDSYSLYFQTRGDYWGQGTQVTVSS` , I found its polyreactivity (PSR sort gate) recorded as low polyreactivity

Looking up `QVPLVESGGGLVQAGGSLRLSCAASGRTFPRYAMGWYRQAPGKERELVATISSGGSTNYADSVKGRFTISLDNAKNTVYLQMNSLKPEDTAVYYCAARYGRTYTRVGYWGQGTQVTVSS` , I found its polyreactivity (PSR sort gate) recorded as high polyreactivity

Looking up `QVQLVESGGGLVQAGGSLRLSCAASGFTFPFYTMGWYRQAPGKERELVAAITRSGASTFYADSVKGRFTISRDNAKNTVYLQMNSLKPEDTAVYYCAARRGYAPYEYWGQGTQVNVSS` , I found its polyreactivity (PSR sort gate) recorded as high polyreactivity

Next:
Looking up `QVQLVESGGGIVQAGGSLRLSSAASGFTFDSNAMGWYRQPPGKERELVAAISASGDSTYYADSVKGRFTISRDNAKNTVYLQMNSLKPEDTAVYYCAADSYYGGWRFDHWGQGTQVTVSS` , I found its polyreactivity (PSR sort gate) recorded as low polyreactivity
